Could you please report measured pEC50 for the items listed next?
experimental-target: T1, human uPAR expressed on HEK293 cells (human, UniProt Q03405 23-305)
T1 construct: whole, on cells; also called Hu-uPAR
assay-procedure: flow cytometry, HEK293 cells expressing human uPAR, 100 nM uPA present
Answers are plain numbers, as −log10 of the molar value.

See these solved cases before continuing.
Q: Could you tell me which pEC50 is on file for M5 (antibody, V domains shown, Mouse hybridoma antibody; also called anti-uPAR antibody M5; parental M5) VH: QVQLKESGPGLVAPSQSLSITCTVSGFSLTNYGVHWVRQPPGKDLEWLVVIWSDGGTTYNSALKSRLSISKDNSKSQVFLKMNSLQTDDTAMYYCARGGRSDLFAYWGQGTLVTVSA VL: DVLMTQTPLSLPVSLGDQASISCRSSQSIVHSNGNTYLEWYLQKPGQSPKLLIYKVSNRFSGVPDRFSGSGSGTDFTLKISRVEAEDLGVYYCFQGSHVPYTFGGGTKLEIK ?
Ans: 8.60

Q: Can you handle M43 (antibody, V domains shown, Mouse hybridoma antibody; also called anti-uPAR antibody M43; parental M43) VH: QVQLQQSGAELARPGASVNLSCKASGYTFTSYGISWVKQRTGQGLEWIGEIYPRSGNTYYNEKFKGKATLTADKSSRTAYMELRSLTSEDSAVYFCAGKDYGSTYADYWGQGTTLTVSS VL: QIVLTQSPAIMSASPGEKVTMTCSASSSVSSRYLHWYQQKSGASPKLWIYGTSNLASGVPARFSGSGSGTSYSLTINSVEAEDAATYYCQQYHSDPLTFGAGTKLELK next?
Ans: 9.52

Q: Can you handle M1 (antibody, V domains shown, Mouse hybridoma antibody; also called anti-uPAR antibody M1; parental M1) VH: EVQLQQSGAELVRPGASVKLSCTASGFNIKDEYINWVKQRPEQGLEWIGWIDPENGDTEYASKFQGKATITADTSSNTAYLQLSSLTSEDTAVYYCTGGNYVGWFPYWGQGTLVTVSA VL: QIVLTQSPAIMSASPGEKVTMTCSASSSVSYMHWYQQKSGTSPKRWLYDTSKLASGVPARFSGSGSGTSYSLTISSMEAEDAATYYCQQWSSNPPYTFGGGTKLEIK next?
Ans: 9.18

Continuing:
Q: Could you tell me which pEC50 is on file for M8 (antibody, V domains shown, Mouse hybridoma antibody; also called anti-uPAR antibody M8; parental M8) VH: QIQLVQSGPELKKPGETVKISCKASGNTFTDYGMNWVKQSPGKGLKWMGWINTNTGEPTYADDFKGRFAFSLETSASTAYLQINNLKNEDMATYFCAHYSFDYWGQGTTLTVSS VL: DIQMTQSPASLSVSVGQTVTITCRTSENIYSNLAWYQQKPGKSPQLLVYAATNLADGVPSRFSGSGSGTQYSLKINSLQSEDFGSYYCQHFWGTPWTFGGGTKLEIK ?
Ans: 9.27
